// IC50 lookup, one value per entry
# Tested on: HeLa
# method_summary: Cytotoxicity against human HeLa cells after 72 hrs by MTT assay
# Type: functional, cell-based
I only need the number, in µM, no unit after it.

Consider the reported IC50 for these compounds:
C=C1[C@H]2CC[C@](C)(O)[C@H](O)[C@H]2O[C@@]12OC(C)(C)CC2=O    20.6
C=C1[C@H]2CC[C@](C)(O)[C@H](O)[C@H]2O[C@]12OC(C)(C)CC2=O    32.8

In the following, a different compound is considered.
Using the record for `CC(=O)OCC1=C2CC[C@](C)(O)[C@H](O)[C@H]2O[C@@]12OC(C)(C)CC2=O` , report its IC50.
18.8
